Just for reference, patent US20260356924 is where these values come from.

// Kd lookup, one value per entry
- TARGET_DESC: iPHF (human, UniProt P10636)
- Sequence (P10636 2-758): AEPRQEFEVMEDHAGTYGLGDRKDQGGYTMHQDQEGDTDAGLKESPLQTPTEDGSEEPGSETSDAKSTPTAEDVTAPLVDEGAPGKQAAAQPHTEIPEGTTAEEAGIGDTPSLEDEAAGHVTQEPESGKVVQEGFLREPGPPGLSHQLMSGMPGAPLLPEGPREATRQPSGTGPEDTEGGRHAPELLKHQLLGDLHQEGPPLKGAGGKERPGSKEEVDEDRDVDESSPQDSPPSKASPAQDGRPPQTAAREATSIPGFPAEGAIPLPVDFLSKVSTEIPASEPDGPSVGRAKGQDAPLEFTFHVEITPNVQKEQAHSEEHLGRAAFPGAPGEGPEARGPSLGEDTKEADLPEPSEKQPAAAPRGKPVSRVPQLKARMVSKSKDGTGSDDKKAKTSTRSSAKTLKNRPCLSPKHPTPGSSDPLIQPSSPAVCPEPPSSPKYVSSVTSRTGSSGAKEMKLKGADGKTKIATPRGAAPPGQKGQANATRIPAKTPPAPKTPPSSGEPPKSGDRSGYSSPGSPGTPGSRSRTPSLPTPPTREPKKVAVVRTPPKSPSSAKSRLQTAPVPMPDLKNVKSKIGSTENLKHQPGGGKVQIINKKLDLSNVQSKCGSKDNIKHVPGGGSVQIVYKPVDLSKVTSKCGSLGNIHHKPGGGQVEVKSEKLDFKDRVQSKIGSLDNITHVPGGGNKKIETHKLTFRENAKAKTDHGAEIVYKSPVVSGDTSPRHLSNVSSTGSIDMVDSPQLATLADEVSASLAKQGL
- RUN_DESCRIPTION: SPR
Form entry: value (nM) — number only.

Recorded Kd, per entry:
BINDER	UNIT_SYMBOL	VALUE_MEASURED
Ab3 (antibody, V domains shown, immunopurified paired helical filament tau, hyperphosphorylated) VH: EVQLVQSGAEVKKPGSSVKVSCKASGFTFTRYWMHWVKERPGHGLEWIGNINPNNGGTDFNEKFKNRVTMTVHKSITTAYMELSRLTSDDSAVYYCARGTGTGAMDYWGQGTLVSVSS VL: DVVMTQSPLSLPVTLGQPASISCRSSQSLVHNNGITYLYWYQQRPGQSPRLLIYRVSNRFSGVPDRFSGSGSGTDFTLKISRVEAEDVGVYYCFQGTHVPRTFGQGTKLEIK	nM	0.0325
Ab1 (antibody, V domains shown, immunopurified paired helical filament tau, hyperphosphorylated) VH: QVQLVQSGAEVKKSGASVKVSCKASGFTFTRYWMHWVRQAPGQGLEWIGNINPNNGGTDFNEKFKNRVTLIRDTSTTTVFIQLTSLTSEDSAVYYCARGTGTGAMDYWGQGTLVTVSS VL: DIVMTQSPLSLSVTPGQPASISCRSSQSLVHNNGITYLYWYLQKPGQSPQLLIYRVSNRFSGVPDRFSGSGSGTDFTLKISRVEAEDVGVYYCFQGTHVPRTFGQGTKVEIK	nM	0.0434

Consider now this further binder.
According to the records, this binder Ab8 (antibody, V domains shown, immunopurified paired helical filament tau, hyperphosphorylated) VH: QVQLVQSGAEVKKSGASVKVSCKASGFTFTRYWMHWVRQAPGQGLEWIGNINPNNGGTDFNEKFKNRVTLIRDTSTTTVFIQLTSLTSEDSAVYYCARGTGTGAMDYWGQGTLVTVSS VL: DVVMTQSPLSLPVTLGQPASISCRSSQSLVHNNGITYLYWYQQRPGQSPRLLIYRVSNRFSGVPDRFSGSGSGTDFTLKISRVEAEDVGVYYCFQGTHVPRTFGQGTKLEIK displays Kd of 0.0496
